pKi: −log10 of the molar value.
The reader will find pKi measurements below, all made with 5-hydroxytryptamine receptor 1D (Homo sapiens, UniProt P28221).
Sequence (P28221 whole entry): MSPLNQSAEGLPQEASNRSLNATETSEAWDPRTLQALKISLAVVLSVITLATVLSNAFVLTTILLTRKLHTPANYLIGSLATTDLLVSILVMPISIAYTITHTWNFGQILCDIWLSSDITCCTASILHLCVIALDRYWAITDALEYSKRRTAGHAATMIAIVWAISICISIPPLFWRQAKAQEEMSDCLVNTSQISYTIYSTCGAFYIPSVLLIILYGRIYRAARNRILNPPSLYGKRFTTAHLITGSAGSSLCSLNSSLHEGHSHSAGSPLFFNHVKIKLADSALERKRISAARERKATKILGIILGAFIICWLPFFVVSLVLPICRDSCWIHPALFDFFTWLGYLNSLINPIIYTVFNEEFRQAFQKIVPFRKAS

- Given Smiles: "CN1CCC[C@@H]1Cc1c[nH]c2ccc(C3=CCN(C(=O)NC4CCCCC4)CC3)cc12"
  Tested On: "5-hydroxytryptamine receptor 1D (Homo sapiens, UniProt P28221)"
  pKi: 8.52
- Given Smiles: "CN1CCC[C@@H]1Cc1c[nH]c2ccc(C3=CCN(C(=O)Nc4ccc(Cl)cc4)CC3)cc12"
  Tested On: "5-hydroxytryptamine receptor 1D (Homo sapiens, UniProt P28221)"
  pKi: 9.42
- Given Smiles: "CN1CCC[C@@H]1Cc1c[nH]c2ccc(C3=CCN(C(=S)Nc4ccccc4)CC3)cc12"
  Tested On: "5-hydroxytryptamine receptor 1D (Homo sapiens, UniProt P28221)"
  pKi: 9.17
- Given Smiles: "COc1ccc(S(=O)(=O)N2CC=C(c3ccc4[nH]cc(C[C@H]5CCCN5C)c4c3)CC2)cc1"
  Tested On: "5-hydroxytryptamine receptor 1D (Homo sapiens, UniProt P28221)"
  pKi: 9.12
- Given Smiles: "CN1CCC[C@@H]1Cc1c[nH]c2ccc(C3=CCN(C(=O)Nc4ccccc4)CC3)cc12"
  Tested On: "5-hydroxytryptamine receptor 1D (Homo sapiens, UniProt P28221)"
  pKi: 9.35
